Test: Serum and intratumor drug concentration at experimental endpoint, SW620 model
Type: in vivo, mice
Conditions: Swiss Nu/nu, mouse, tumor vs serum, oral, as part of ODC; SW620 model; read-out: ratio tumor vs serum
Measured Kp at 1 h accompanies every entry in the list below.
Enter a number only.

1) CCCS(=O)(=O)Nc1ccc(F)c(C(=O)c2c[nH]c3ncc(-c4ccc(Cl)cc4)cc23)c1F [vemurafenib] | 0.5
2) Cn1nccc1Nc1nccc(-c2ccn([C@H](CO)c3ccc(Cl)c(F)c3)c(=O)c2)n1 [GDC-0994] | 0.29
3) CNC(=O)c1cc(Oc2ccc(NC(=O)Nc3ccc(Cl)c(C(F)(F)F)c3)c(F)c2)ccn1 [regorafenib] | 0.28

Now for another entry.
Data point: Cn1cnc2c(F)c(Nc3ccc(Br)cc3Cl)c(C(=O)NOCCO)cc21 [selumetinib] ; Kp at 1 h = 0.77
